Data provenance is the supplement of paper PMC6555819.

Give measured PBM binding z-score for each item. Keep answers brief.
Test system: RARa:RXR (NR concentration 270 nM, RXRa partner concentration 90 nM)
experiment-description: PBM binding z-score (relative to random genomic background probes); higher = stronger binding; sequences stand for … in GC…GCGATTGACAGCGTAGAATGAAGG
Quick one: just the number, no unit, thanks!

Under RARa:RXR (NR concentration 270 nM, RXRa partner concentration 90 nM): PBM binding z-score value of "CGAACTAGGTCTTCCAGGACAGTGAATACATTGA" ?
-0.242

Under RARa:RXR (NR concentration 270 nM, RXRa partner concentration 90 nM): PBM binding z-score value of "TCTTGTAGATCAAGCAGGTTGAGAAAGCCTGAGT" ?
-0.172

Under RARa:RXR (NR concentration 270 nM, RXRa partner concentration 90 nM): PBM binding z-score value of "CTCGAAAGGTCGGTTGAGGTGAGTATACGGATAA" ?
3.13
